# assayed_target: Human ACC2 (Homo sapiens, UniProt O00763)
# Construct: made in house; host or cells: SF-9 insect cells (baculovirus, pFAST-BacHTa)
# Sequence (O00763 117-2458 limits assumed): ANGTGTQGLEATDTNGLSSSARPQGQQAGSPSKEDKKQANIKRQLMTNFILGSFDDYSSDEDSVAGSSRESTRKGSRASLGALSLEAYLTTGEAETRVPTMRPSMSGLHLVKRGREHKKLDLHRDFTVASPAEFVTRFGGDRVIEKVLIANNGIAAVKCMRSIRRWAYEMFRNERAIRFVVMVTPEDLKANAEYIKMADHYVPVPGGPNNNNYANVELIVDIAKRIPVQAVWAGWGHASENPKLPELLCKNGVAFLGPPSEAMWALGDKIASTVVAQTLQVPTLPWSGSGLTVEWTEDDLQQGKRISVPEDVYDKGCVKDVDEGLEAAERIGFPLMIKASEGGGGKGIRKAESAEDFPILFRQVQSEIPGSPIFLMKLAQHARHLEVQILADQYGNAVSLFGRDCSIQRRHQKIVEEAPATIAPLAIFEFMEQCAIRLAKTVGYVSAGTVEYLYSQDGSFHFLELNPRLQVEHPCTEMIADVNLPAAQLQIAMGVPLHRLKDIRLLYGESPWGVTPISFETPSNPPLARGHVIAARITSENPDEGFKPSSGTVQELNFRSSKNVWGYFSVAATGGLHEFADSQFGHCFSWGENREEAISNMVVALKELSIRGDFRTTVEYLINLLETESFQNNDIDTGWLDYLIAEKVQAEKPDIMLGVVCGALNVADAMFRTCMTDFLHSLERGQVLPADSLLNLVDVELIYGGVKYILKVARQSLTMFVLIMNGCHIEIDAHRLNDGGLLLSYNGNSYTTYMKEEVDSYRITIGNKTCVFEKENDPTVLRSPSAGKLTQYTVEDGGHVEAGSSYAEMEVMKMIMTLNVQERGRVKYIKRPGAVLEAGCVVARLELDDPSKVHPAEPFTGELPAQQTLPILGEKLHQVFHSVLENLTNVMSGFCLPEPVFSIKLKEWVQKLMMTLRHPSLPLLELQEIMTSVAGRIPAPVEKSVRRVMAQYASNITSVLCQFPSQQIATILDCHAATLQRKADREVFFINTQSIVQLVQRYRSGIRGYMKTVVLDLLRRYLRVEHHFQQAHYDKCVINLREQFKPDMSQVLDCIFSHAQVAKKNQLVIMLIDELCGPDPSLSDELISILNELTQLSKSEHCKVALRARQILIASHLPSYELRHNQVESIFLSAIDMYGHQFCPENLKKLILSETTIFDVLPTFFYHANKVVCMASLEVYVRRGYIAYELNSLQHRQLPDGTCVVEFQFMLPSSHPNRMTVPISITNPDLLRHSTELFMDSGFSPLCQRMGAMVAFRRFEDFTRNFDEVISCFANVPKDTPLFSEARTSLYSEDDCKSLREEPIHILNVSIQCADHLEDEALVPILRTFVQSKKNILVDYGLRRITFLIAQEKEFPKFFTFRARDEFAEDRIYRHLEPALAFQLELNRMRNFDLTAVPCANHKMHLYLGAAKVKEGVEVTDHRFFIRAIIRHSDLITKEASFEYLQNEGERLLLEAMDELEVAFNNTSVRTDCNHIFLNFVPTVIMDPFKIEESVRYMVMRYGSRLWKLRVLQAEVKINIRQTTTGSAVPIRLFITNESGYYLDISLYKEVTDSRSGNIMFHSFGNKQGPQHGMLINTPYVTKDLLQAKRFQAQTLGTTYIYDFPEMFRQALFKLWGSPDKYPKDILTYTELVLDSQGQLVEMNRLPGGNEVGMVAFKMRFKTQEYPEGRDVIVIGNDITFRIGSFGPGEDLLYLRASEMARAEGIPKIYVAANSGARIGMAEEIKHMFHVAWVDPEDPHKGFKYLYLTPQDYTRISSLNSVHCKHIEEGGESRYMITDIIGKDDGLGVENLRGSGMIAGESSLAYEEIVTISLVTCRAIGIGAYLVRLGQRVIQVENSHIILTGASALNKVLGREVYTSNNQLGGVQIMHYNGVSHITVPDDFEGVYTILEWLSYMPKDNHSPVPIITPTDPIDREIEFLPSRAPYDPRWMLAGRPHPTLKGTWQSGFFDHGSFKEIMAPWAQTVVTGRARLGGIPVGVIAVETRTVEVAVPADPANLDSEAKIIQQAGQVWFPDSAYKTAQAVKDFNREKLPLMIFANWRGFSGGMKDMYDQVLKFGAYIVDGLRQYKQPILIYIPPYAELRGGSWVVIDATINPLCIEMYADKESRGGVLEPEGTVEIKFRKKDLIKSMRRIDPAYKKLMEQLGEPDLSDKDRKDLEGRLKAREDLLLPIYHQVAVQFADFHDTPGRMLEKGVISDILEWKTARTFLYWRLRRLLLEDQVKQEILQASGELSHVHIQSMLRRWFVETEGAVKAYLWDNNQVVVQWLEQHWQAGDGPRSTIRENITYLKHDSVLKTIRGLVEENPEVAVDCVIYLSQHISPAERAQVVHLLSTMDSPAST
# assay_summary: in vitro enzymatic ACC activity assay (malachite green, absorbance at 620 nm), ACC2
# Type: biochemical
# experimental_parameters: recombinant His-tagged human ACC2, 6.4 μg/mL; same method as ACC1
Give IC50 for every item shown.

Given CCNC(=O)Nc1sc2ccccc2c1C(=O)N1CCC2(CC1)N=C(CCC(=O)N1CCCCC1)NC2=O [Compound 13] , state its recorded IC50. < 1 µM

Input CCNC(=O)Nc1sc2ccccc2c1C(=O)N1CCC2(CC1)N=C(COC(C)C)NC2=O [Compound 29] 1 to 10 µM

Input CCNC(=O)Nc1sc2ccccc2c1C(=O)N1CCC2(CC1)N=C(Cn1cc(CN(C)C)nn1)NC2=O [Compound 35] 1 to 10 µM

Input CCNC(=O)Nc1sc2c(OC)cccc2c1C(=O)N1CCC2(CC1)N=C(COCC(C)C)NC2=O [Compound 31] < 1 µM

Input CCNC(=O)Nc1sc2c(OC)cccc2c1C(=O)N1CCC2(CC1)N=C(CCC(=O)OCC)NC2=O [Compound 11] < 1 µM

Input CCNC(=O)Nc1sc2ccccc2c1C(=O)N1CCC2(CC1)N=C(CCC(=O)N(CC)CC)NC2=O [Compound 12] 1 to 10 µM

Input CCNC(=O)Nc1sc2ccccc2c1C(=O)N1CCC2(CC1)N=C(Cn1cc(C3CC3)nn1)NC2=O [Compound 38] < 1 µM

* * *

# assayed_target: Human ACC1 (Homo sapiens)
# Construct: made in house; host or cells: SF-9 insect cells (baculovirus, pFAST-BacHTc)
# assay_summary: in vitro enzymatic ACC activity assay (malachite green, absorbance at 620 nm), ACC1
# Assay type: biochemical
# experimental_parameters: recombinant His-tagged human ACC1, 8 μg/mL; 60 min preincubation, 20 min reaction at 30° C.
# Procedure: Provided in Example A is an in vitro enzymatic ACC activity assay for activity against ACC. The binding affinity of the test compound to ACC1 or ACC2 is determined by the changes in absorbance (at 620 nm); […]. It should be noted that a variety of other expression systems and hosts are also suitable for the expression of ACC, as would be readily appreciated by one of skill in the art. […] [formula] where Abs is absorbance, Avg is average. […]
Give IC50 for every item shown.

Given CCNC(=O)Nc1sc2ccccc2c1C(=O)N1CCC2(CC1)N=C(CS(=O)(=O)C(C)C)NC2=O [Compound 24] , state its recorded IC50. 1 to 10 µM

Input CCNC(=O)Nc1sc2ccccc2c1C(=O)N1CCC2(CC1)N=C(COc1ccccc1C(N)=O)NC2=O [Compound 27] > 10 µM

Input CCNC(=O)Nc1sc2ccccc2c1C(=O)N1CCC2(CC1)N=C(CN1C(=O)CCC1=O)NC2=O [Compound 5] > 10 µM

Input CCNC(=O)Nc1sc2ccccc2c1C(=O)N1CCC2(CC1)N=C(COC1CCCCC1)NC2=O [Compound 28] 1 to 10 µM

Input CCNC(=O)Nc1sc2ccccc2c1C(=O)N1CCC2(CC1)N=C(CCC(=O)OCC)NC2=O [Compound 10] 1 to 10 µM

Input CCNC(=O)Nc1sc2c(OC)cccc2c1C(=O)N1CCC2(CC1)N=C(C(C)C)NC2=O [Compound 16] 1 to 10 µM

Input CCNC(=O)Nc1sc2c(OC)cccc2c1C(=O)N1CCC2(CC1)NC(c1ccccc1)=NC2=O [Compound 18] 1 to 10 µM

Input CCNC(=O)Nc1sc2ccccc2c1C(=O)N1CCC2(CC1)N=C(COc1ccccc1OC)NC2=O [Compound 25] 1 to 10 µM
